Molecular target: human serum albumin (HSA) (Homo sapiens, UniProt P02768)
Sequence (P02768 25-609): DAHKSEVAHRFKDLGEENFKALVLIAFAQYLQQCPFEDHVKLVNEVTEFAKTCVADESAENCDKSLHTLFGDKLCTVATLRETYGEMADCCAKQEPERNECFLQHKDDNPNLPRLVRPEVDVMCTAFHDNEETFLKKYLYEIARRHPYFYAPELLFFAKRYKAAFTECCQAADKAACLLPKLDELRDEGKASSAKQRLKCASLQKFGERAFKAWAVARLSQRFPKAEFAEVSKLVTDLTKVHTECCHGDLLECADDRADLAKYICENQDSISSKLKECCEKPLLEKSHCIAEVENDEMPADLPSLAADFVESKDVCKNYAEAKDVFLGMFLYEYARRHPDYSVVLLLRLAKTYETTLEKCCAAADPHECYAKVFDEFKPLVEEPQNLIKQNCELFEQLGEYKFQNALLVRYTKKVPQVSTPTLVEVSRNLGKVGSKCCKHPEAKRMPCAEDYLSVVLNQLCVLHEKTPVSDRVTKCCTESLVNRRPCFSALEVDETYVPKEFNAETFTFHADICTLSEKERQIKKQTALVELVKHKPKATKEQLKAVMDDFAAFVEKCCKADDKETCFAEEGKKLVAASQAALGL
Assay: HSA-HPLC, biomimetic chromatography on Chiralpak HSA column
Type: in vitro ADME
Parameters: purchased Daicel Chiral Technologies, West Chester, PA, USA
Conditions: pH 7.4
Observable: LogKHSA

(A) O=C1c2ccccc2S(=O)(=O)N1CCCCCN1CCN(c2ccccn2)CC1
(B) O=C1c2ccccc2S(=O)(=O)N1CCCCCCN1CCN(c2nsc3ccccc23)CC1
(C) O=C1c2ccccc2S(=O)(=O)N1CCCCCN1CCN(c2cccc(Cl)c2Cl)CC1
[ask] Falling order of LogKHSA, please. Give the labels in the order requested.
[reply] C, B, A
(C: 1.77, B: 1.23, A: 0.72)
